# MEASUREMENT_TARGET: MCH receptor (Homo sapiens)
# Construct: expressed in transfected cells; host or cells: CHO cells
# Sequence (Q99705 whole entry): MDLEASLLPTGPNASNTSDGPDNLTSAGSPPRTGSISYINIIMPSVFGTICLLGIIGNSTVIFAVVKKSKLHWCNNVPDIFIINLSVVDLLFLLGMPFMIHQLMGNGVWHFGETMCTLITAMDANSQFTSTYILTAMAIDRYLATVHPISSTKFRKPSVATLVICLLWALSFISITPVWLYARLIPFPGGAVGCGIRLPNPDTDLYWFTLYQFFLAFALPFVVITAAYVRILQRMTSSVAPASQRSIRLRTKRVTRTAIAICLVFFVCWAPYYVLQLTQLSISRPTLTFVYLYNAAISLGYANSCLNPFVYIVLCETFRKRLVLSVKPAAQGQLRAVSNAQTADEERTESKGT
# METHOD_NOTES: MCH Receptor Binding Assay ([125I]-MCH, SPA, membranes from CHO cells expressing the MCH receptor)
# RUN_CONDITIONS: [125I]-MCH displacement, CHO cell membranes; read-out: Class (Ki, MCH receptor binding)
pKi: −log10 of the molar value.
As shown below, each of these compounds has a reported pKi value.

Some entries whose results are on file:
CC(C)(C)OC(=O)N1CCC(C(NCc2nc3cc(Cl)c(Cl)cc3[nH]2)c2ccc(-c3cccc(C#N)c3)cc2)CC1 (stereo not shown) [Compound 15A] : 7.00 to 7.30
N#Cc1cccc(-c2ccc(C3(NCc4nc5cc(Cl)c(Cl)cc5[nH]4)CCN(C4CCCC4)CC3)cc2)c1 [Compound 67A] : < 7.00
CC(C)(C)OC(=O)N1CCC(OCc2nc3cc(F)c(F)cc3[nH]2)(c2ccc(-c3cccc(C#N)c3)cc2)CC1 [Compound 63] : < 7.00

Data request, read-out pKi, for CS(=O)(=O)N1CCC(C(OCc2nc3cc(Cl)c(Cl)cc3[nH]2)c2ccc(-c3cccc(C#N)c3)cc2)CC1 (stereo not shown) [Compound 39] < 7.00
